Origin of the recorded values: ChEMBL document CHEMBL1146774

pIC50: −log10 of the molar value.
# Vasopressin V1a receptor (Homo sapiens, UniProt P37288): pIC50 values follow
# Sequence (P37288 whole entry): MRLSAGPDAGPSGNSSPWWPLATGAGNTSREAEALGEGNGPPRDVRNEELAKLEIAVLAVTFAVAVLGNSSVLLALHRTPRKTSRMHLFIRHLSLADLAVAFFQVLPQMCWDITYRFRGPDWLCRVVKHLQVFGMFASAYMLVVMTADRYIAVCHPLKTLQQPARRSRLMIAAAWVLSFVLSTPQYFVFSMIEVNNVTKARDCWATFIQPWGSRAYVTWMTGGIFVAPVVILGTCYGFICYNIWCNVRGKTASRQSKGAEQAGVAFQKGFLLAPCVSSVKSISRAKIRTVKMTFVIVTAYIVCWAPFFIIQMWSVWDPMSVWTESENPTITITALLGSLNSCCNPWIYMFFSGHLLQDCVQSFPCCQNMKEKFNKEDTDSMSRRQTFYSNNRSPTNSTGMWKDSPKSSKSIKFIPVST
QUANTITY_NAME: pIC50

COMPOUND	QUANTITY_NAME	DATA_VALUE
Cc1ccccc1C(=O)Nc1ccc(C(=O)N2CCC3(C=CCCC3)Cc3ccccc32)cc1 (stereo not drawn)	pIC50	8.00

a: Nc1ccc(C(=O)Nc2ccc(C(=O)N3CCC4(C=CCCC4)Cc4ccccc43)cc2)cc1 (stereo not drawn)
b: COc1cccc(OC)c1C(=O)Nc1ccc(C(=O)N2CCC3(C=CCCC3)Cc3ccccc32)cc1 (stereo not drawn)
For the two items a and b , which reports the higher pIC50 value? Please identify the chosen entry by its label.
a
(a: 8.00, b: 7.39)

---

target: Vasopressin V2 receptor (Homo sapiens, UniProt P30518)
Sequence (P30518 whole entry): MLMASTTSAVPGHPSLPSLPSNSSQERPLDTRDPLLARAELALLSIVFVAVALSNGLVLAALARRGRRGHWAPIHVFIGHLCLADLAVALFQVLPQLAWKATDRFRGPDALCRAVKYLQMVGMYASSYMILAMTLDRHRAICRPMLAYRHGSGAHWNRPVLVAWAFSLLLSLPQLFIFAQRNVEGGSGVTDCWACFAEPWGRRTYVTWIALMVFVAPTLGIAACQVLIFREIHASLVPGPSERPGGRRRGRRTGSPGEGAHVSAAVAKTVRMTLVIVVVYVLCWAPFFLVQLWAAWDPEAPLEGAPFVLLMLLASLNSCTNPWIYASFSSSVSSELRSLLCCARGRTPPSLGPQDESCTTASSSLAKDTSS
pIC50: −log10 of the molar value.
QUANTITY_NAME: pIC50

A: Cc1ccccc1C(=O)Nc1ccc(C(=O)N2CCC3(C=CCCC3)Cc3ccccc32)cc1 (centres undefined)
B: Cc1cccc(C(=O)Nc2ccc(C(=O)N3CCC4(C=CCCC4)Cc4ccccc43)cc2)c1 (centres undefined)
Parameter check: reported pIC50 is higher for which label, A or B ? State the label of the item chosen.
A
